Documented max activation across a set of compounds
- experimentalTarget: Nuclear receptor subfamily 1 group I member 2 (Rattus norvegicus)
- methodNotes: Rat pregnane X receptor (rPXR) activation by small molecules, qHTS assay (AID 1346983); also: % is scaled to controls: 0 for no effect and ±100 for the full control effect
- conditions: rPXR luciferase reporter cells, One-Glo luminescence, 24 h; stronger effect = higher value
Results filed as inconclusive are left out.
propertyName: max activation (%)

>>> numericresult("CC(C)c1ncc([N+](=O)[O-])n1C")
-4.41
>>> numericresult("NCCO/C=C/[C@H](N)C(=O)O")
-1.97
>>> numericresult("COC(=O)C[C@](O)(CCCC(C)(C)O)C(=O)O[C@@H]1C(OC)=CC23CCCN2CCc2cc4c(cc2[C@H]13)OCO4 (stereo not given in full)")
-15.5
>>> numericresult("FC(F)(F)C(F)(F)C(F)(F)C(F)(F)C(F)(F)F")
-2.03
>>> numericresult("CCOC(=O)[C@H](CCc1ccccc1)N[C@@H](C)C(=O)N1[C@H](C(=O)O)C[C@H]2CCCC[C@@H]21")
-1.14
>>> numericresult("COc1ccc(/C=C/C(=O)O)cc1")
1.47
>>> numericresult("C/C(=C\\C(=O)OCCCCCCCCC(=O)O)C[C@@H]1OC[C@H](C[C@@H]2O[C@H]2[C@@H](C)[C@H](C)O)[C@@H](O)[C@H]1O")
-5.5
>>> numericresult("O=C(O)c1ccccc1O")
-4.21
>>> numericresult("CCCCCCCCCCCCCCCC(=O)OC[C@H](COP(=O)([O-])OCC[N+](C)(C)C)OC(=O)CCCCCCCCCCCCCCC")
0.686
>>> numericresult("CC(C)=CCC/C(C)=C/CC/C(C)=C/CC/C(C)=C/CC1=C(C)C(=O)c2ccccc2C1=O")
-1.32
